The reported measurements were obtained from ChEMBL document CHEMBL5126678.

# method: Cytotoxicity against human EA.hy 926 cells assessed as reduction in cell viability measured after 72 hrs by MTT assay
# Type: toxicity, cell-based
assay_metric: IC50 at 72 h (nM)
Answers are plain numbers, in nM.

C#CCOc1c(OC)cc(C2C(C#N)=C(N)Oc3c2ccc2ccccc32)cc1OC (stereo not drawn) = 17.1

Items follow; give IC50 at 72 h for each.
1. CCOc1c(OC)cc(C2C(C#N)=C(N)Oc3c2ccc2ccccc32)cc1OC (stereo not drawn)
2. CCCOc1c(OC)cc(C2C(C#N)=C(N)Oc3c2ccc2ccccc32)cc1OC (stereo not drawn)

Result:
1: 6.2; 2: 11.9

* * *

# method: Effect on angiogenic activity in 24 hrs post-fertilized fil1/EGFP transgenic zebrafish embryo assessed as subintestinal vessel area at 100 nM measured after 48 hrs by fluorescence microscopy (reference value: 100%)
# Format: toxicity, Danio rerio
# test_parameters: 0.1 µM
assay_metric: Activity (%)
Answers are plain numbers, in %.

CCOc1c(OC)cc(C2C(C#N)=C(N)Oc3c2ccc2ccccc32)cc1OC (stereo not drawn) = 78.1
C#CCOc1c(OC)cc(C2C(C#N)=C(N)Oc3c2ccc2ccccc32)cc1OC (stereo not drawn) = 34.5
CCCOc1c(OC)cc(C2C(C#N)=C(N)Oc3c2ccc2ccccc32)cc1OC (stereo not drawn) = 74.5

Items follow; give Activity for each.
1. C=CCOc1c(OC)cc(C2C(C#N)=C(N)Oc3c2ccc2ccccc32)cc1OC (stereo not drawn)
2. CCCCOc1c(OC)cc(C2C(C#N)=C(N)Oc3c2ccc2ccccc32)cc1OC (stereo not drawn)

Result:
1. 31.3
2. 87.6
